Provide the recorded TGI for the entries that follow.
Tested on: NCI-H522 lung
PROTOCOL_NOTES: NCI tumour cell line growth inhibition, 48 h

Exercise: Notebook: pull reported TGI for NCI-H522 lung, entry COc1cc2c3c([nH]c2c(OC)c1OC)CCN(Cc1ccccc1)C3
Key: > 100 µM

Exercise: // same read-out, input: O=NN(CCF)C(=O)NC1CCSCC1
Key: > 100 µM

Exercise: Same for CSc1ccc(C2=NN(C(C)=O)C(c3ccc(-c4ccc(Cl)cc4)o3)C2)cc1 (stereo not drawn)
Key: 60.3 µM

Exercise: Cool, now c1ccc(CC2COC(c3cccs3)=N2)cc1 (stereo not drawn)
Key: > 100 µM

Exercise: Next: C[C@@H]1Cc2cc(O)ccc2[C@H]2CC[C@]3(C)/C(=C/COCCN(C)C)CC[C@H]3[C@H]12 (tested in a mixture with another compound)
Key: 0.735 µM

Exercise: Please give the result for CC1(C)CC(=O)c2c(nc3c4c([nH]c(-c5ccc(Br)cc5)c24)CC(C)(C)C3)C1 too.
Key: > 100 µM

Exercise: Moving on to Cc1cc(=O)c2c(O)cc3c(c2o1)CC=C(COC1OC(COC2OC(CO)C(O)C(O)C2O)C(O)C(O)C1O)CO3 (stereo not drawn)
Key: > 100 µM

Exercise: Then N[C@H](COCc1ccccc1)c1ccccc1 ?
Key: 39.1 µM

Exercise: What would you report for c1cc(-c2cn3c(n2)SCC3)ccn1 ?
Key: > 100 µM

Exercise: Now the same for O=C1C(OCCOc2ccccc2)=C(OCCOc2ccccc2)C(=O)c2ccccc21
Key: > 100 µM

Exercise: Entry to check: CC1C=CC(OC(=O)C(C)(O)CCC(O)(C(=O)OC2CC(O)C(C(C)C)CC2(C)O)C(C)C)(C(C)C)CC1 (stereo not drawn)
Key: 1.36 µM

Exercise: Try this molecule too: COC(=O)C(=O)Cc1nc2ccccc2o1
Key: > 100 µM

Exercise: And CC(CO)(Nc1ccc([N+](=O)[O-])cc1[N+](=O)[O-])C(=O)O (stereo not drawn) ?
Key: 39 µM

Exercise: Can you handle Cc1[nH]c(-c2cc(N)ccc2Cl)c2c1C(=O)CCCC2 next?
Key: 15.2 µM

Exercise: // next record Nc1nc(N)c(CCCCc2ccccc2)c(N)n1
Key: > 100 µM

Exercise: Please do the same for COc1ccc(CNc2cc(=O)n(C)c(=O)[nH]2)cc1 as well.
Key: > 100 µM

Exercise: Query N/C(=N\OC(=O)c1ccccc1)C(Cc1ccccc1)C(=O)NOC(=O)c1ccccc1 (stereo not drawn) next
Key: 3.47 µM

Exercise: And what about the molecule ClC1=C(Cl)C(Cl)(Cl)c2c3c(c4c(c21)C(Cl)(Cl)C(Cl)=C4Cl)C(Cl)(Cl)C(Cl)=C3Cl ?
Key: > 100 µM

----------
Test system: SN12C renal
PROTOCOL_NOTES: NCI tumour cell line growth inhibition, 48 h
MEASUREMENT_TYPE: TGI

Exercise: # input compound: COC(=O)C1CCC(=O)N1C(c1ccc2c(c1)OCO2)c1cc(OC)c(OC)c(OC)c1 (stereo not drawn) ; wanted: its TGI
Key: > 100 µM

Exercise: Same question, N#CNc1nc(N)c(-c2ccc(Cl)cc2)c(C(=O)Nc2nccs2)n1 this time
Key: > 100 µM

Exercise: // query: c1cc(N2CCN(c3ccc(C4=NCCCN4)cc3)CC2)ccc1C1=NCCCN1
Key: > 100 µM

Exercise: For CSc1c(C#N)c(N)n(-c2ccc(Cl)cc2)c(=O)c1C#N then?
Key: > 100 µM

Exercise: Can you handle Cc1cc(NS(=O)(=O)c2ccc(NC(=O)c3cccc4c(Nc5ccc(S(N)(=O)=O)cc5)c5ccccc5nc34)cc2)no1 next?
Key: > 100 µM

Exercise: For C=C1CC[C@@H](C)[C@](C)(CCc2ccoc2)C/C=C\C=C/1C(=O)O then?
Key: > 100 µM

Exercise: Now try CCOC(=O)Cn1nnc2ccc(Nc3nc4ccccc4nc3-c3ccccc3)cc21 .
Key: > 100 µM

Exercise: // repeat for COc1cccc(/N=N/C(=NNC(=O)c2ccc(C)cc2)c2ccc(N(C)C)cc2)c1 and report
Key: > 100 µM

Exercise: Entry NNc1nnc(-c2nnc(NN)o2)o1 please
Key: > 10 µM

Exercise: Could you do the same for COc1cc(CNc2nc3ccccc3nc2C(=O)O)cc(OC)c1OC , please?
Key: > 100 µM

Exercise: Follow-up entry: COc1ccc(C2=NOC(N)(c3ccc(OC)cc3)C2)cc1 (stereo not drawn)
Key: > 100 µM

Exercise: Next compound up: O=C(O)c1ccccc1NC(=S)c1ccccc1
Key: > 100 µM

Exercise: What about Cc1cccc(NC(=O)/C(=N\N)C(c2cnc3ccc([N+](=O)[O-])cc3n2)[N+](=O)[O-])c1C (stereo not drawn) ?
Key: > 100 µM

Exercise: Another compound to look at: N#C/C(C(=S)NCc1ccccc1)=C(/N)N1CCCC1
Key: > 100 µM

Exercise: Cool, now Nc1ccc(Nc2cc(=O)[nH]c(=O)[nH]2)cc1Cl
Key: > 100 µM

Exercise: Param item: COc1ccc(-c2[nH]c3ccccc3c2CCNS(=O)(=O)c2ccc(C)cc2)cc1
Key: > 10 µM

Exercise: Consider next the compound c1cc(-c2cn3c(n2)SCC3)ccn1 in the same way.
Key: > 100 µM

Exercise: Then this compound: CCN(CC)C1Oc2cc3c(cc2C(c2cccc(OC)c2OC)C1C)OCO3 (stereo not drawn)
Key: > 100 µM

Exercise: Item: Cc1ccccc1C(=O)C1CCCCC1O (stereo not drawn)
Key: > 100 µM

Exercise: Please do the same for O=c1[nH]c(Nc2nc3ccccc3[nH]2)nc(O)c1Cc1ccccc1 as well.
Key: > 100 µM

Exercise: Entry to check: O=C(NCCNCCO)c1cccc2ccc(-c3ccccc3)nc12
Key: 17.6 µM

Exercise: Record: Cc1ccccc1-n1c(N)c(-c2nc3ccccc3[nH]2)sc1=S
Key: 56.9 µM

Exercise: What do we get for Cc1ccc(NC(=O)C(=O)C(C(=O)/C=C/c2ccccc2)C2OC(=O)c3ccccc32)c(C)c1 (stereo not drawn) ?
Key: > 100 µM

Exercise: Please answer likewise for C[n+]1c2ccccc2nc2c(N)cc(N)cc21
Key: 14 µM

Exercise: Consider next the compound COc1cccc(Oc2ccccc2NC(=O)CNC(=O)c2cccc3ccccc23)c1 in the same way.
Key: > 25 µM

Exercise: Try NC1=NC(=O)C(CC(=O)Nc2ccc(Cl)cc2Cl)S1 (stereo not drawn) next.
Key: > 100 µM

Exercise: Follow-up entry: O=C(Cc1nc2ccccc2o1)C(=O)Nc1cccc(C(F)(F)F)c1
Key: > 100 µM

Exercise: Continue with COc1ccc2c(c1)C(=O)c1c-2c(OCCN(C)C)nc2ccccc12
Key: 10.6 µM

----------
Test system: SF-268 CNS
PROTOCOL_NOTES: NCI tumour cell line growth inhibition, 48 h
Please go through the items and note down their TGI.

Exercise: Query (compound): Fc1cccc(F)c1C(Nc1nncs1)Nc1nncs1 ; field requested: TGI
Key: > 100 µM

Exercise: Thanks! And Cc1cccc(NC(=O)/C(=N\N)C(c2cnc3ccc([N+](=O)[O-])cc3n2)[N+](=O)[O-])c1C (stereo not given) ?
Key: > 100 µM

Exercise: Now try O=C1OC(=O)c2c1c(-c1ccccc1)nc1ccccc21 .
Key: > 100 µM

Exercise: Same question, CC(=O)/C(=C\c1ccccc1O)C(=O)Nc1ccccc1C this time
Key: > 100 µM

Exercise: Subsequent entry: O=C1CCCC/C1=C\c1ccc(Cl)c(Cl)c1
Key: 59.4 µM

Exercise: # iterate: CCOC(=O)C1CCCCN1C(=O)Cc1c[nH]c2ccccc12 (stereo not given)
Key: > 100 µM

Exercise: Note, next up: COC(=O)c1cc(-c2ccc(OC)c(OC)c2)[nH]c1N/N=C/c1c(Cl)cccc1Cl
Key: 6.27 µM

Exercise: Also C=C1[C@@H](O)O[C@H]2[C@H]1C[C@H](OC(C)=O)[C@]13C(=O)O[C@H]4C[C@](C)(O)[C@H]([C@H]41)C31C=C(C)[C@]2(O)O1 , if possible.
Key: > 100 µM

Exercise: Also, CC1(C)CC(=O)c2c(nc3c4c([nH]c(-c5ccc(Br)cc5)c24)CC(C)(C)C3)C1 please.
Key: > 100 µM

Exercise: Continue with CN(C)CCc1c2c(nc3ccccc13)C(=O)c1cccnc1C2=O
Key: 2.69 µM

Exercise: Okay, and COc1cc(C(=O)Nc2cc(O)c(CC=C(C)C)c(O)c2)cc2c1O[C@]1(C)CC[C@@H](O)C(C)(C)[C@H]1C2 ?
Key: 39.3 µM

Exercise: And then Oc1cccc2c1NCCC2 , what is it?
Key: > 67.2 µM

Exercise: Likewise for COc1ccc(-c2cc(=O)c3c(O)cccc3o2)c(OC)c1OC ?
Key: > 100 µM

Exercise: Now try CC(=O)O[C@@H]1C[C@@]2(C)[C@@H]3CC=C4[C@@H](C[C@H](O)C(=O)C4(C)C)[C@]3(C)C(=O)C[C@]2(C)[C@H]1[C@@](C)(O)C(=O)/C=C/C(C)(C)OC(C)=O .
Key: > 41.9 µM

Exercise: Repeat for the following compound: C=CCOc1ccc(C2C(C(=O)OC)C(=O)CC(O)(c3ccccc3)C2C(=O)OC)cc1OC (stereo not given)
Key: 52.7 µM

Exercise: Now the same for Cc1ccncc1C(N)=O
Key: > 100 µM

Exercise: Now the same for O=C(c1ccco1)N(C(=O)N1CCN(c2ccccc2)CC1)S(=O)(=O)c1ccccc1
Key: > 100 µM

Exercise: Repeat for the following compound: CC(C)(C)OC(=O)NCCCCC(N)NC(=O)c1ccccc1 (stereo not given)
Key: > 100 µM

Exercise: Same question for CCOC(=O)c1c[nH]c2ccc3c(c2c1=O)S(=O)(=O)CC3 (tested in a mixture with another compound) please.
Key: > 100 µM

Exercise: # repeat for O=C(c1ccccc1)c1c(CC(O)c2ccncc2)n(C(=O)c2ccccc2)c2ccccc12 (stereo not given)
Key: 49.3 µM
